- test-protocol: NCI Yeast Anticancer Drug Screen. Data for the bub3 strain (AID 167)
- setup-conditions: S. cerevisiae bub3 mutant strain, at 50.0 µM, hits give high values
Compounds without any hit were thinned out: in the full panel of roughly 79,000, 15% have a hit.

compound: Cc1cc2nc(CC(C(F)(F)F)C(F)(F)F)oc2cc1C
readout-unit: %
growth inhibition: -14.4

compound: Nc1ccc([N+](=O)[O-])cc1C(=O)Oc1ccccn1
readout-unit: %
growth inhibition: -3.6

compound: O=C1c2ccccc2C(=O)c2c1ccc1c2N=C(c2ccc(Br)cc2)CC(c2cccc3ccccc23)N1 (stereo not drawn)
readout-unit: %
growth inhibition: 9.95

compound: COc1ccc(/C(=N\O)c2nccc3cc(OC)c(OC)cc23)cc1OC
readout-unit: %
growth inhibition: -2.95

compound: CC1(C)COC(c2ccccc2Cl)OC1
readout-unit: %
growth inhibition: 0.7

compound: O=[N+]([O-])c1ccc(C=NC23CC4CC(CC(C4)C2)C3)cc1
readout-unit: %
growth inhibition: 5.55

compound: CSc1ncc2c(n1)-c1ccccc1OC2N1CCOCC1 (stereo not drawn)
readout-unit: %
growth inhibition: -18.4

compound: COC(=O)CC(c1ccc(OC)cc1)C(CC(=O)OC)c1ccc(OC)cc1 (stereo not drawn)
readout-unit: %
growth inhibition: 25.9

compound: CC[C@]12CCCN3CCc4c(n(c5ccccc45)C(=O)C1)[C@@H]32
readout-unit: %
growth inhibition: -25.6

compound: CCCCCCCCCCCCCCCc1c(NC(C)(CC(C)(C)O)[P+](=O)O)c(=O)n(C)n1C (stereo not drawn)
readout-unit: %
growth inhibition: -33.8

compound: O=C(O)c1ccccc1CC(Cc1ccc2c(c1)CCC2)C(=O)O (stereo not drawn)
readout-unit: %
growth inhibition: -17.6

compound: COc1ccc(/C=N/Nc2c([N+](=O)[O-])cc(C)cc2[N+](=O)[O-])cc1
readout-unit: %
growth inhibition: 11.8

compound: COc1ccc2c(O)c(Oc3ccc(Cl)cc3)c(=O)oc2c1
readout-unit: %
growth inhibition: 7.95

compound: Cc1cccc(C(=O)NNC(=O)c2ccc3ccccc3c2)c1
readout-unit: %
growth inhibition: -28.9

compound: O=C1c2ccccc2-c2c1c1ccccc1c(=O)n2Cc1ccccc1
readout-unit: %
growth inhibition: -16.9

compound: O=C(Nc1ccc(S(=O)(=O)N2CCCCC2)cc1)OC1CCCCCC1
readout-unit: %
growth inhibition: -4.05

compound: NC(=S)NNc1ccccc1
readout-unit: %
growth inhibition: -2.6

compound: CC(=O)Oc1cccc2cc3cc(C)cc(OC(C)=O)c3c(OC(C)=O)c12
readout-unit: %
growth inhibition: 6.5

compound: O=C(O)c1nc2nc(Cl)c(Cl)nc2[nH]1
readout-unit: %
growth inhibition: -37.8

compound: COc1ccc(C2=NOC3COC4C=CC=CC4OCC23)cc1 (stereo not drawn)
readout-unit: %
growth inhibition: -19.4

compound: CS(=O)(=O)C(CCC(=O)C(c1ccccc1)c1ccccc1)C(=O)c1ccccc1 (stereo not drawn)
readout-unit: %
growth inhibition: -1.55

compound: CC(=O)Nc1ccc(C=O)s1
readout-unit: %
growth inhibition: 1.65

compound: COC(=O)c1nc(N)nc(C(=O)OC)c1C(=O)c1ccc(Cl)cc1Cl
readout-unit: %
growth inhibition: -8.3
